- Tested target: baculovirus-expressed ALK (Homo sapiens)
- Construct: host or cells: baculovirus expression system
- Sequence (Q9UM73 19-1620): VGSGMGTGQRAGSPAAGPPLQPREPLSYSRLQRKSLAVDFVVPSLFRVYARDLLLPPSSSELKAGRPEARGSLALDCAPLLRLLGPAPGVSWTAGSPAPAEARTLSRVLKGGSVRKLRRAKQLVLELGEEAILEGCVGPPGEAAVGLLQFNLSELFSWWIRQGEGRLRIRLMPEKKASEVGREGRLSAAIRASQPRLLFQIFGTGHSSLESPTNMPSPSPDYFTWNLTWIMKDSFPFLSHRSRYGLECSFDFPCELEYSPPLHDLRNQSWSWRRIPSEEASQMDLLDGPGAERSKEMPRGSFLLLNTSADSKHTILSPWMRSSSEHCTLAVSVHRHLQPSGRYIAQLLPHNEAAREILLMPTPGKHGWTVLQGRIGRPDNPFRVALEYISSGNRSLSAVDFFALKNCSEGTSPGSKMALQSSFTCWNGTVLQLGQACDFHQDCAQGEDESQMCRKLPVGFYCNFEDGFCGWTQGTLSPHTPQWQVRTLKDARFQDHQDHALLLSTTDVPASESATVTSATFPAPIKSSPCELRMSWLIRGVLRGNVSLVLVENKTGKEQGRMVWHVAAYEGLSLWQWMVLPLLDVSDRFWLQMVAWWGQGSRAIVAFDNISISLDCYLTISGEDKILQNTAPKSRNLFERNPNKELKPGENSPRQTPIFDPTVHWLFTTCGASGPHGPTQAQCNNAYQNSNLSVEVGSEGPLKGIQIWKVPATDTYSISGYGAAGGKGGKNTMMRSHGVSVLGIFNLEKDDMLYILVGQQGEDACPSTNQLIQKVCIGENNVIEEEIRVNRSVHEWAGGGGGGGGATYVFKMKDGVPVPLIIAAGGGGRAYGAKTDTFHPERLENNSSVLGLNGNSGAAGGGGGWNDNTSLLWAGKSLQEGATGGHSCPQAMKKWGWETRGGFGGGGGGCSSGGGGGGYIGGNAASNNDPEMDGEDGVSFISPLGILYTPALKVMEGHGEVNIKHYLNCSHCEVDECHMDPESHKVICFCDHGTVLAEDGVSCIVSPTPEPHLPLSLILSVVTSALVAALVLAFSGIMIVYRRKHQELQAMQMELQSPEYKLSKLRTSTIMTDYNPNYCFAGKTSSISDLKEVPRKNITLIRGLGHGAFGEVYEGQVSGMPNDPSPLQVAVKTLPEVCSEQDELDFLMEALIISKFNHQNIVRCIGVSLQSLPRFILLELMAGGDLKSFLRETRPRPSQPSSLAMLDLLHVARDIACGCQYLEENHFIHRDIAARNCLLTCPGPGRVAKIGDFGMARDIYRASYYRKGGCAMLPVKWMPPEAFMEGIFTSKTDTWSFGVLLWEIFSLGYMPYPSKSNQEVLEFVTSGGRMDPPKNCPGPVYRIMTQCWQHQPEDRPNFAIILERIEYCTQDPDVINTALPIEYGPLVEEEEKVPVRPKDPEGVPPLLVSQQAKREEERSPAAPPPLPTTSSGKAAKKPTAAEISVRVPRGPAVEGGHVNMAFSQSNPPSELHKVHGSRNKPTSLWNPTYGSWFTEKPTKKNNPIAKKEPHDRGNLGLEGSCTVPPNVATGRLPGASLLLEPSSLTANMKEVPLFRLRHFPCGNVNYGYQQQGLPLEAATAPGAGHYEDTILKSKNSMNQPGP
- Test description: ALK Kinase Assay (ELISA-type, time-resolved fluorescence)
- Assay type: biochemical
- Experimental parameters: 1 μM ATP (Km level), 30 ng/ml ALK, 37° C., 15 minutes; read-out: ALK Activity (ALK kinase inhibition, IC50 class)
Parameter measured: IC50

INSERT INTO assay_data (molecule, parameter_measured, recorded_result) VALUES
  ('CCCNC(=O)c1ccccc1Nc1nc(Nc2cc3c(cc2OC)CCN(CCOC)CC3)ncc1Cl', 'IC50', '< 100 nM'),
  ('CCOc1ccccc1Nc1nc(Nc2cc3c(cc2OC)CCN(CC(=O)N(C)C)CC3)ncc1Cl', 'IC50', '< 100 nM'),
  ('CNS(=O)(=O)c1ccccc1Nc1nc(Nc2ccc3c(c2)CNC(=O)CCN3C(=O)C(F)(F)F)ncc1Cl', 'IC50', '< 100 nM'),
  ('COCCN1CCc2ccc(Nc3ncc(Cl)c(N[C@H]4CC[C@@H](NS(C)(=O)=O)CC4)n3)cc2CC1', 'IC50', '100 to 1000 nM');

**Query** For the record COc1cc2c(cc1Nc1ncc(Cl)c(N[C@@H]3CCCC[C@H]3NS(C)(=O)=O)n1)CCC(N1CCN(C)CC1)CC2 (single isomer, unassigned) [Example 1101] , what value of IC50 is listed for baculovirus-expressed ALK (Homo sapiens)?
**Result** < 100 nM

**Query** Next record, please: COCCN1CCc2ccc(Nc3ncc(Cl)c(Nc4ccccc4C(=O)NCCCN(C)C)n3)cc2CC1
**Result** 100 to 1000 nM

**Query** Okay, and COc1cc2c(cc1Nc1ncc(Cl)c(Nc3ccccc3S(=O)(=O)C(C)C)n1)CCC(NCCO)CC2 (stereo not drawn) ?
**Result** < 100 nM

**Query** Do the same for COc1cc2c(cc1Nc1ncc(Cl)c(Nc3ccccc3S(=O)(=O)C(C)C)n1)CCN(C(CF)CF)CC2 please
**Result** < 100 nM

**Query** Next entry: COCCN1CCc2cc(Nc3ncc(Cl)c(N[C@H]4[C@@H](C(N)=O)[C@@H]5C=C[C@H]4C5)n3)c(OC)cc2CC1
**Result** < 100 nM
